Catalogue of binders with associated kon
ASSAY_TARGET: T1, hK1 (human tissue kallikrein 1), recombinant (human, UniProt P06870 25-262)
T1 construct: Expressed in P. pastoris from KLK1 cDNA and purified; enzymatically active; also called KLK1; Recombinant (Pichia) Kallikrein
RUN_DESCRIPTION: SPR
Kindly provide the numeric value in M⁻¹ s⁻¹ only, without the unit symbol.

Consider the worked cases shown below.
BINDER | kon [M⁻¹ s⁻¹]
M0124-G12 (Fab, V domains shown) VH: EVQLLESGGGLVQPGGSLRLSCAASGFTFSHYWMRWVRQAPGKGLEWVSSIGSSGGMTKYADSVKGRFTISRDNSKNTLYLQMNSLRAEDTAVYYCARALRWRAFDIWGQGTMVTVSS VL: DIQMTQSPSSVSASVGDRVTITCRASQGISSWLAWYQQKPGKAPKLLIYAASSLQSGVPSRFSGSGSGTDFTLTISSLQPEDFATYYCQQANSFPLTFGGGTKVEIKR | 372000
M0126-C10 (Fab, V domains shown) VH: EVQLLESGGGLVQPGGSLRLSCAASGFTFSHYKMHWVRQAPGKGLEWVSSIWPSGGGTFYADSVKGRFTISRDNSKNTLYLQMNSLRAEDTAMYYCARTSGGFGAFDIWGQGTMVTVSS VL: DIQMTQSPSSLSASVGDRVTITCRAGQTINNYLNWYQQKPGKAPNLLIYAASNLQSGVPSRFSGSKSGTDFTLTISSLQPEDFATYHCQQTYRTPFTFGGGTRVEIKG | 451000
M0098-H04 (Fab, V domains shown) VH: EVQLLESGGGLVQPGGSLRLSCAASGFTFSHYVMSWVRQAPGKGLEWVSRIYPSGGQTYYADSVKGRFTISRDNSKNTLYLQMNSLRAEDTAVYYCARGAGWFDPWGQGTLVTVSS VL: AQSELTQPPSASGSPGQSLTISCTGGRRDIGNYNYVSWYQQHPGKAPRLIIYDVRKRPSGVPDRFSGSKSGNVAFLTVSGLQTDDEADYYCGSYTGTSNVFGSGTTVTVLG | 461000

Lab note: next binder to report on.
Any idea what its kon is? The binder is M0108-C10 (Fab, V domains shown) VH: EVQLLESGGGLVQPGGSLRLSCAASGFTFSRYVMAWVRQAPGKGLEWVSVIRPSGGKTLYADSVKGRFTISRDNSKNTLYLQMNSLRAEDTAVYYCARVAGRVGVPATKKNWFDPWGQGTLVTVSS VL: AQSVLTQPASVSGSPGQSITISCTGTSSDVGGYNYVSWYQQHPGQPPKLIIYEVSNRASGVSNRFSGSKFGNTASLTISGLQSEDEADYHCSSYTSSTTLLFGGGTRLTVLG
353000
